Test system: Passive Cutaneous Anaphylaxis
Test Description: Passive Cutaneous Anaphylaxis (PCA) Assay, in vivo anti-allergic activity
Set-up: species or system rat
Details: Rattus norvegicus, 0.5 h; 10 mg/kg, p.o.; oral administration 30 minutes before ovalbumin challenge; blued area vs control
Recorded Endpoint: inhibition in vivo at 10 mg/kg (%)
Field format: number, assumed %, no unit text.

So what's the measured inhibition in vivo at 10 mg/kg for this one? O=C(O)C(=O)Nc1ccc(C=Cc2cccnn2)cc1 [Example 19]
0

So what's the measured inhibition in vivo at 10 mg/kg for this one? CCOC(=O)C(=O)Nc1cccc(C=Cc2ccnc(NC(C)=O)n2)c1 [Example 16]
42

So what's the measured inhibition in vivo at 10 mg/kg for this one? CCOC(=O)C(=O)Nc1ccc(C=Cc2nccnc2CC)cc1 [Example 30]
6

So what's the measured inhibition in vivo at 10 mg/kg for this one? CCOCCOC(=O)C(=O)Nc1ccc(C=Cc2cnccn2)cc1 [Example 32]
46
